- Tested on: Renilla luciferase RNA
- Measurement description: Barcoded aptazyme variant library screen: un-cleaved Renilla luciferase RNA by barcode read counts, HEK293-T cells
- Type: cell-based
- Reported conditions: un-cleaved Renilla luciferase RNA by barcode read counts; with 1 mM theophylline (ON) over without theophylline (OFF); HEK293-T cells; triplicate
Listed molecules paired with reported Fold change in RNA expression between the ON state and the OFF state
Note: the reply should be a number with no unit written.

Look over these answered cases.
- Molecule: "RA319 (nucleic acid, expressed or natural sequence) DNA: GCGCGTCCTGGATTCGCGGAAACGCGTACAGAGAATACCAGCATCGTCTTGATGCCCTTGGAAGTCTCTCCAGCTGACGAGTCCCAAATAGGACGAAACGCGC"
  Reported value: 0.9
- Molecule: "RA418 (nucleic acid, expressed or natural sequence) DNA: GCGCGTCCTGGATTCGCGGAAACGCGTACATCGAGAATACCAGCATCGTCTTGATGCCCTTGGAAGTCTCGCCAGCTGACGAGTCCCAAATAGGACGAAACGCGC"
  Reported value: 0.7
- Molecule: "RA374 (nucleic acid, expressed or natural sequence) DNA: GCGCGTCCTGGATTCGCGGAAACGCGTACATCCAGCTGCCGGAATACCAGCATCGTCTTGATGCCCTTGGAAGTCCGGACGAGTCCCAAATAGGACGAAACGCGC"
  Reported value: 0.8
- Molecule: "RA346 (nucleic acid, expressed or natural sequence) DNA: GCGCGTCCTGGATTCGCGGAAACGCGTACATCCAGCTGGAATACCAGCATCGTCTTGATGCCCTTGGAAGTCCGACGAGTCCCAAATAGGACGAAACGCGC"
  Reported value: 0.9
- Molecule: "RA377 (nucleic acid, expressed or natural sequence) DNA: GCGCGTCCTGGATTCGCGGAAACGCGTACATCCAGCTGACGAGTCCCAAATAGGACGGAGAATACCAGCATCGTCTTGATGCCCTTGGAAGTCTCAAACGCGC"
  Reported value: 0.8
- Molecule: "RA400 (nucleic acid, expressed or natural sequence) DNA: GCGCGTCCTGGATTCGCGGAACCGGAATACCAGCATCGTCTTGATGCCCTTGGAAGTCCGGACGCGTACATCCAGCTGACGAGTCCCAAATAGGACGAAACGCGC"
  Reported value: 0.7

Then there is this molecule:
Tell me the measured Fold change in RNA expression between the ON state and the OFF state of RA436 (nucleic acid, expressed or natural sequence) DNA: GCGCGTCCTGGATTCGCGGAAACGCGTACATCCAGCGGAATACCAGCATCGTCTTGATGCCCTTGGAAGTCCGCTGACGAGTCCCAAATAGGACGAAACGCGC , please. 0.6
